Tested on: NCI-H460
Protocol: NCI tumour cell line growth inhibition, 48 h
Active and inactive are the calls of the source. No stated cut-off is given here; in the data, active = GI50 up to about 1.1 µM and inactive = higher.
Metric Name: GI50

The following molecules have reported results that may help.
CC(C)(C)OC(=O)NCCCC(=O)NC1(c2cc3ccccc3s2)CCCCC1 | 17 µM (inactive)
Cc1cn(C2CC(OC(=O)c3ccc(Cl)cc3)C(COC(=O)c3ccc(Cl)cc3)O2)c(=O)[nH]c1=O (configuration not stated) | > 100 µM (inactive)
CC(=O)NNc1nc(C)c(C(/C=C/c2ccccc2O)=N/N=C(N)N)s1 | > 100 µM (inactive)

q: Short answer please: GI50, NCI-H460, entry NC(=O)CC1OC(=O)Cc2cc3c(c(O)c21)C(=O)c1c(O)cccc1C3=O (configuration not stated)
a: 89.5 µM (inactive)

q: Short answer please: GI50, NCI-H460, entry NC(=O)NC(=O)c1cccc(C(=O)NC(N)=O)n1
a: > 100 µM (inactive)

q: Short answer please: GI50, NCI-H460, entry COc1cccc2c1C1=CC(=O)CCC1C(C)(C)O2 (configuration not stated)
a: 35.9 µM (inactive)

q: Short answer please: GI50, NCI-H460, entry COC(=O)C1=C(O)C(C(=O)OC)[C@]2(O)[C@H](C(=O)OC)[C@H]1C[C@@H](c1ccc(OC)c(OC)c1)[C@H]2C(=O)OC (some centres not stated)
a: 14.7 µM (inactive)

q: Short answer please: GI50, NCI-H460, entry Cc1cc(O)nc(CNC(=O)c2ccc3ccccc3c2)n1
a: > 100 µM (inactive)

q: Short answer please: GI50, NCI-H460, entry O=C(O)CSCC(=O)O
a: > 100 µM (inactive)

q: Short answer please: GI50, NCI-H460, entry Cc1cc(C)c(C(=O)C(C)C(c2ccccc2)c2ccc(Cl)cc2)c(C)c1 (configuration not stated)
a: > 100 µM (inactive)

q: Short answer please: GI50, NCI-H460, entry N#Cc1c(-c2ccccc2)c(-c2ccccc2)cc2c(=O)c3ccc(Cl)cc3[nH]c12
a: > 100 µM (inactive)

q: Short answer please: GI50, NCI-H460, entry CCCCCCCCC/C=C1\CCC(CN2CCOCC2)C1=O (configuration not stated)
a: 7.26 µM (inactive)

q: Short answer please: GI50, NCI-H460, entry Nc1ccc2ccc(N3CCNCC3)nc2n1
a: 44 µM (inactive)

q: Short answer please: GI50, NCI-H460, entry O=C1/C(=C/c2cccc(F)c2)CCCc2ccccc21
a: 17.4 µM (inactive)

q: Short answer please: GI50, NCI-H460, entry C=CCC12CCC(=O)[C@@]1(C)CC=C(O)C2=O (some centres not stated)
a: > 100 µM (inactive)

q: Short answer please: GI50, NCI-H460, entry CCn1c(C)nc([N+](=O)[O-])c1Sc1ncc[nH]1
a: 66.2 µM (inactive)

q: Short answer please: GI50, NCI-H460, entry Cc1cc(N(C)C)c2ccccc2[n+]1CCCCCCCCCC[n+]1c(C)cc(N(C)C)c2ccccc21.[O-][Cl+3]([O-])([O-])[O-].[O-][Cl+3]([O-])([O-])[O-]
a: 0.348 µM (active)

* * *

Test system: HCC 2998
Protocol: NCI tumour cell line growth inhibition, 48 h
The source made the active and inactive calls. Cut-off read from the data, not from the text of the source: active = GI50 up to about 1.1 µM and inactive = higher.
GI50: recorded values

The following molecules have reported results that may help.
CC1N(O)C(c2ccccc2)C(c2ccccc2)=[N+]1[O-] (stereo not given) | > 100 µM (inactive)
O=C(Cc1ccc(F)cc1)NC1=C(Cl)C(=O)c2ccccc2C1=O | 4.22 µM (inactive)
COC(=O)[C@@H]1C=C[C@H](OC2OC(COC(C)=O)C(OC(C)=O)C(OC(C)=O)C2OC(C)=O)n2c(=O)n(-c3ccccc3)c(=O)n21 (stereo not given in full) | 8 µM (inactive)
NNC(=O)CC(=O)Nc1ccccc1F | > 100 µM (inactive)
COC(=O)c1ccccc1N(C(=O)c1ccccc1)c1ccccc1C | 60 µM (inactive)

q: Reported GI50, molecule COc1ccc(C(=C(C#N)C#N)c2ccc(OC)cc2)cc1 : ____
a: > 100 µM (inactive)

q: Reported GI50, molecule O=c1c2ncn(COCCCl)c2n(-c2ccccc2)c(=S)n1-c1ccccc1 : ____
a: > 100 µM (inactive)

q: Reported GI50, molecule CCOC(=O)c1c(N2CCOCC2)[nH]c(=O)c(C(c2cccs2)c2c(O)c(C(=O)OCC)c(N3CCOCC3)[nH]c2=O)c1O : ____
a: > 100 µM (inactive)

q: Reported GI50, molecule COc1ccc(SCc2cc(OC)c(OC)c(OC)c2)cc1OC : ____
a: 50.9 µM (inactive)

q: Reported GI50, molecule C=C1OC(c2ccccc2NC)=NC12CCCCC2 : ____
a: > 100 µM (inactive)
